# TEST_SYSTEM: human Mac-1 (integrin αMβ2, CD11b/CD18) (human, UniProt P11215 17-1152; P05107 23-769)
# ASSAY_NOTES: flow cytometry, HEK293/Mac-1 cells, PBS (Mock), 10 µg/ml of this antibody; binding of reporter mAb KIM127 read
Reported KIM127 (Expression relative to IgG4) values for the following binders.

Reference set, count: 5
[
  {
    "BINDER": "anti-Mac-1 antibody clone 24F08 (antibody, human IgG4, V domains shown) VH: EVQLVESGGGLVQPGGSLRLSCAASGFTFSSYWMSWVRQAPGKGLEWVSIINYSGREADYADSVKGRFTISRDNSKNTLYLQMNSLRAEDTAVYYCARDGSYVGQAHEAFDIWGQGTLVTVSS VL: DIQMTQSPSSLSASVGDRVTITCRASQSISKYLAWYQQKPGKAPKLLIYGTSNLQSGVPSRFSGSGSGTDFTLTISSLQPEDFATYYCQQSRSWPLTFGQGTKVEIK",
    "PROPERTY_MEASURED": "KIM127 (Expression relative to IgG4)",
    "MEASUREMENT": "2.17 relative to IgG4"
  },
  {
    "BINDER": "anti-Mac-1 antibody clone 25A06 (antibody, human IgG4, V domains shown) VH: EVQLVESGGGLVQPGGSLRLSCAASGFTFSSYYMSWVRQAPGKGLEWVSTINYDGSEKDYADSVKGRFTISRDNSKNTLYLQMNSLRAEDTAVYYCARDRLGNYPWFDVWGQGTLVTVSS VL: DIQMTQSPSSLSASVGDRVTITCRASQSISNYLAWYQQKPGKAPKLLIYDANNLQSGVPSRFSGSGSGTDFTLTISSLQPEDFATYYCQQSYSWPLTFGQGTKVEIK",
    "PROPERTY_MEASURED": "KIM127 (Expression relative to IgG4)",
    "MEASUREMENT": "1.92 relative to IgG4"
  },
  {
    "BINDER": "anti-Mac-1 antibody clone DF4-22 (antibody, human IgG4, V domains shown) VH: EVQLVESGGGLVQPGGSLRLSCAASGFTFTDYNVHWVRQAPGKGLEWVSGINSSGSETNYADSVKGRFTISRDNSKNTLYLQMNSLRAEDTAVYYCARDSVFKTVGGYDAVMDYWGQGTLVTVSS VL: DIQMTQSPSSLSASVGDRVTITCRASQSIYNYLAWYQQKPGKAPKLLIYGTSTLQSGVPSRFSGSGSGTDFTLTISSLQPEDFATYYCMQSYSSPTTFGQGTKVEIK",
    "PROPERTY_MEASURED": "KIM127 (Expression relative to IgG4)",
    "MEASUREMENT": "1.82 relative to IgG4"
  },
  {
    "BINDER": "anti-Mac-1 antibody clone 27D06 (antibody, human IgG4, V domains shown) VH: QVKLQESGAEVVKPGASVKISCKASGYSFTDYNMNWVKQSNGKSLEWIGVINPNYGTTSYNQKFKGKATLTVDQSSSTAYMQLNSLTSEDSAVYYCARTYDYDGDAFAYWGQGTTVTVSS VL: DIELTQSPALMSASPGEKVTMTCRASSSVSSNNLHWYQQKSGASPKLWIYSTSNLATGAPARFSGSGSGTSYSLTISSMEAEDAATYYCQQWNSNPPTFGGGTKLEIK",
    "PROPERTY_MEASURED": "KIM127 (Expression relative to IgG4)",
    "MEASUREMENT": "0.99 relative to IgG4"
  },
  {
    "BINDER": "anti-Mac-1 antibody clone 27E12 (antibody, human IgG4, V domains shown) VH: QVQLQQSGTVLARPGASVKMSCKASGYTFTSYWMHWVKQRPGQGLEWIGAIYPGNSDTSYNQKFKGKAKLTAVTSASTAYMELSSLTNEDSAVYYCTRGGGSYEFAYWGQGTTVTVSS VL: DIELTQSPAIMSASPGEKVTMTCSVSSSVSYMYWYQQKPGSSPRLLIYDTSNLASGVPARFSGSGSGTSYSLTISSMEAEDAATYYCQQWSSNPFTFGSGTKLEIK",
    "PROPERTY_MEASURED": "KIM127 (Expression relative to IgG4)",
    "MEASUREMENT": "1 relative to IgG4"
  }
]

INPUT: # get_value(readout='KIM127 (Expression relative to IgG4)', item= anti-Mac-1 antibody clone DF4-25 (antibody, human IgG4, V domains shown) VH: EVQLVESGGGLVQPGGSLRLSCAASGFTFKDYWLSWVRQAPGKGLEWVSIINYGGSETYYADSVKGRFTISRDNSKNTLYLQMNSLRAEDTAVYYCARTQTSYVMDYWGQGTLVTVSS VL: DIQMTQSPSSLSASVGDRVTITCRASQSVRSGLNWYQQKPGKAPKLLIYAASSLQSGVPRRFSGSGSGTDFTLTISSLQPEDFATYYCMQSHSWPLTFGQGTKVEIK )
OUTPUT: 2.23 relative to IgG4

INPUT: anti-Mac-1 antibody clone 28D06 (antibody, human IgG4, V domains shown) VH: QVKLQQSGPELVKPGASVKISCKASGYSFTDYNMNWVKQSNGKSLEWIGEINPNYGTTRYNQKFKGKATLTVDQSSSTAYMQLNSLTSEDSAVYYCARPSIYYDYDDAMDYWGQGTTVTVSS VL: DIELTQSPAIMSASPGEKVTMTCSASSSVNYMYWYQQKPGSSPRLLIYDTSNLASGVPVRFSGSGSGTSYSLTISRMEAEDAATYYCQQWITYPPTLTFGAGTKLEIK , same question.
OUTPUT: 0.99 relative to IgG4

INPUT: anti-Mac-1 antibody clone 28A12 (antibody, human IgG4, V domains shown) VH: QVKLQESGPELVKPGASVKISCKASGYSFTDYNMNWVKQSNGKSLEWIGEINPGYGTSRYNQKFKDKATLTVDQSSSTAYMQLNSLTSEDSAVYYCARADVDYGDTMDYWGQGTTVTVSS VL: DIELTQSPAIMSASPGEKVTMTCSASSSVSDMHWYQQKSGNSPKRWIYDTSKLASGVPVRFSGSGSGTSYSLTISSMEAEDAATYYCQQWSSNPPTFGAGTKLELK , same question.
OUTPUT: 1.02 relative to IgG4

INPUT: anti-Mac-1 antibody clone 24H01 (antibody, human IgG4, V domains shown) VH: EVQLVESGGGLVQPGGSLRLSCAASGFTFNNYYMSWVRQAPGKGLEWVSIIYYDGSEADYADSVKGRFTISRDNSKNTLYLQMNSLRAEDTAVYYCARNKDIYSVYGMDYWGQGTLVTVSS VL: DIQMTQSPSSLSASVGDRVTITCRASQSISNYLAWYQQKPGKAPKLLIYATSNLQSGVPSRFSGSGSGTDFTLTISSLQPEDFATYYCQQANNTPPTFGQGTKVEIK , same question.
OUTPUT: 1.05 relative to IgG4
